Origin of values: patent US7582803B2

Biological target: human GPR40 (Homo sapiens, UniProt O14842)
Sequence (O14842 whole entry): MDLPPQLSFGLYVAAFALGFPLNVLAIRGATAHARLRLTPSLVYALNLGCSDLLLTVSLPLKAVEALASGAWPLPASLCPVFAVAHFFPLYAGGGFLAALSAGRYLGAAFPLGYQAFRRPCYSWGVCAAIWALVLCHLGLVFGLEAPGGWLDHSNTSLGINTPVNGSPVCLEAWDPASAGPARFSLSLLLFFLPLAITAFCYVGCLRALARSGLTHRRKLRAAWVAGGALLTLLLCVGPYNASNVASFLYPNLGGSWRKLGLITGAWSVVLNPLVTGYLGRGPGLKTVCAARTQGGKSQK
Assay: Cell-based aequorin assay
Settings: CHO cells stably transfected with GPR40 and aequorin; 0.01% HSA; aequorin luminescence; read-out: Relative EC50
Each item that follows carries a reported EC50.

Recorded EC50, per entry:
{"compound": "CC#C[C@H](CC(=O)O)c1ccc(OC2CCc3cc(-c4cccc(OC)c4OC)ccc32)cc1 (some centres unmarked) [Example 61]", "EC50": "> 10000 nM"}
{"compound": "CC#C[C@@H](CC(=O)O)c1ccc(OCCC2CCCCC2)cc1 [Example 69]", "EC50": "100 to 1000 nM"}
{"compound": "CC#C[C@@H](CC(=O)O)c1ccc(O[C@@H]2CCc3cc(Br)ccc32)cc1 (single isomer, unassigned) [Example 44]", "EC50": "10 to 100 nM"}

Looking up Cn1ccnc1[C@@H](CC(=O)O)c1ccc(OCc2cc3c(cc2Br)C(C)(C)CCC3(C)C)cc1 [Example 91] , I see its EC50 listed as 100 to 1000 nM

Looking up CC#C[C@@H](CC(=O)O)c1ccc(OC2CCc3ccc(OC)cc32)cc1 (some centres unmarked) [Example 17] , I see its EC50 listed as 10 to 100 nM

Looking up CC1(C)CCC(C)(C)c2cc(COc3ccc([C@H](CC(=O)O)c4ccon4)cc3)ccc21 [Example 76] , I see its EC50 listed as 10 to 100 nM

Looking up CC#C[C@@H](CC(=O)O)c1ccc(OC2CCc3ccc(-c4ccc(C(F)(F)F)cc4)cc32)cc1 (some centres unmarked) [Example 11] , I see its EC50 listed as 10 to 100 nM

Looking up CC#C[C@@H](CC(=O)O)c1ccc(OC2CCc3cc(Br)ccc32)cc1 (some centres unmarked) [Example 2] , I see its EC50 listed as 10 to 100 nM
